# Measurement protocol: AUC (0 to last) in CD-1 mouse at 20 mg/kg, po
# Type: ADME, organism-based
# Set-up: dose 20 mg/kg, route oral, time 0 - last
# Particulars: in vivo
Readout kind: AUC(0-t)
Lab note: write values as number then unit, every time.

For `Cc1c(-c2ccc(-c3cccnc3Cl)cc2)nc2ccc(F)cc2c1C(=O)O` the compound record lists AUC(0-t) as 35900 ng·h/mL

* * *

# Tested on: HCT-116
# Measurement protocol: Antiproliferative activity against human HCT116 cells over-expressing DHODH after 72 hrs by MTT assay
# Assay type: functional, cell-based
pIC50: −log10 of the molar value.
Binary classification by pIC50, with 5 as an inclusive lower bound for T; all other cases are F.

Illustrative cases are given below, each with its answer.
{"Smiles data": "Cc1c(-c2ccc(-c3ccccc3)cc2)nc2ncccc2c1C(=O)O", "Assigned class": "F"}
{"Smiles data": "O=C(O)c1cc(-c2ccc(-c3ccncc3)cc2)nc2ccccc12", "Assigned class": "F"}
{"Smiles data": "Cc1ccc(-c2ccc(-c3nc4ccc(F)cc4c(C(=O)O)c3C)cc2)c(Cl)n1", "Assigned class": "T"}

Evaluate `Cc1ccc(-c2ccc(-c3nc4ccccc4c(C(=O)O)c3C)cc2)c(Cl)n1` : pIC50 at minimum 5?
F

Evaluate `Cc1c(-c2ccc(-c3ccccc3)cc2)nc2ccncc2c1C(=O)O` : pIC50 at minimum 5?
F

Evaluate `Cc1c(-c2ccc(-c3cccnc3Cl)cc2)nc2ccccc2c1C(=O)O` : pIC50 at minimum 5?
T

Evaluate `Cc1c(-c2ccc(-c3ccccc3)cc2)nc2cnc(C(F)(F)F)cc2c1C(=O)O` : pIC50 at minimum 5?
T

From: ChEMBL document CHEMBL4219256
